target: human 5-HT2C (INI) receptor (Homo sapiens); assay: Calcium flux assay, 5-HT2C; conditions: EC50 ratio; Table 2 section 1
Sequence (P28335 33-458): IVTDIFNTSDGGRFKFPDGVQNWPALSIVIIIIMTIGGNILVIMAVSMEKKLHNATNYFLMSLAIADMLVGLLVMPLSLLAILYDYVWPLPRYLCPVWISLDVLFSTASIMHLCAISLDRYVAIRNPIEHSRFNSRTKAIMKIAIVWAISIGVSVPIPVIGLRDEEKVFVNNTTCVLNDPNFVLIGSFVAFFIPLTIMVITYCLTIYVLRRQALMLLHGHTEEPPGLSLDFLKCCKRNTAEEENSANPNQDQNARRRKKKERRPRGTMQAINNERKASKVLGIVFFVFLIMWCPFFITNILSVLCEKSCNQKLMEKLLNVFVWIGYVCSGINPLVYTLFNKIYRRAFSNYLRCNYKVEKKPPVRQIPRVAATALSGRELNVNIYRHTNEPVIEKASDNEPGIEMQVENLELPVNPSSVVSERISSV
Decide by Selectivity 2B/2C: equal to or exceeding 50 means Met, less means Not met.

The examples below pair each entry with its known result.
[
  {
    "compound": "Cl.NC[C@H]1C[C@@H]1c1ccc(F)cc1 (relative stereo)",
    "class.label": "Met"
  },
  {
    "compound": "Cl.NC[C@H]1C[C@@H]1c1ccccc1Cl (relative stereo)",
    "class.label": "Not met"
  },
  {
    "compound": "Cl.NC[C@@H]1C[C@H]1c1ccccc1Br (relative stereo)",
    "class.label": "Met"
  },
  {
    "compound": "Cl.NC[C@H]1C[C@@H]1c1ccccc1F (relative stereo)",
    "class.label": "Not met"
  }
]

Next compound, please.
Prompt: Is reported Selectivity 2B/2C greater than or equal to 50 here: Cl.NC[C@H]1C[C@@H]1c1cccc(F)c1 (relative stereo)
Completion: Not met

The values you see were collected from paper PMC2832311.
